This collection of values is drawn from patent US5760041A.

Quick record of IC50 values for UniProtKB P00533.
Sequence (P00533 25-1210): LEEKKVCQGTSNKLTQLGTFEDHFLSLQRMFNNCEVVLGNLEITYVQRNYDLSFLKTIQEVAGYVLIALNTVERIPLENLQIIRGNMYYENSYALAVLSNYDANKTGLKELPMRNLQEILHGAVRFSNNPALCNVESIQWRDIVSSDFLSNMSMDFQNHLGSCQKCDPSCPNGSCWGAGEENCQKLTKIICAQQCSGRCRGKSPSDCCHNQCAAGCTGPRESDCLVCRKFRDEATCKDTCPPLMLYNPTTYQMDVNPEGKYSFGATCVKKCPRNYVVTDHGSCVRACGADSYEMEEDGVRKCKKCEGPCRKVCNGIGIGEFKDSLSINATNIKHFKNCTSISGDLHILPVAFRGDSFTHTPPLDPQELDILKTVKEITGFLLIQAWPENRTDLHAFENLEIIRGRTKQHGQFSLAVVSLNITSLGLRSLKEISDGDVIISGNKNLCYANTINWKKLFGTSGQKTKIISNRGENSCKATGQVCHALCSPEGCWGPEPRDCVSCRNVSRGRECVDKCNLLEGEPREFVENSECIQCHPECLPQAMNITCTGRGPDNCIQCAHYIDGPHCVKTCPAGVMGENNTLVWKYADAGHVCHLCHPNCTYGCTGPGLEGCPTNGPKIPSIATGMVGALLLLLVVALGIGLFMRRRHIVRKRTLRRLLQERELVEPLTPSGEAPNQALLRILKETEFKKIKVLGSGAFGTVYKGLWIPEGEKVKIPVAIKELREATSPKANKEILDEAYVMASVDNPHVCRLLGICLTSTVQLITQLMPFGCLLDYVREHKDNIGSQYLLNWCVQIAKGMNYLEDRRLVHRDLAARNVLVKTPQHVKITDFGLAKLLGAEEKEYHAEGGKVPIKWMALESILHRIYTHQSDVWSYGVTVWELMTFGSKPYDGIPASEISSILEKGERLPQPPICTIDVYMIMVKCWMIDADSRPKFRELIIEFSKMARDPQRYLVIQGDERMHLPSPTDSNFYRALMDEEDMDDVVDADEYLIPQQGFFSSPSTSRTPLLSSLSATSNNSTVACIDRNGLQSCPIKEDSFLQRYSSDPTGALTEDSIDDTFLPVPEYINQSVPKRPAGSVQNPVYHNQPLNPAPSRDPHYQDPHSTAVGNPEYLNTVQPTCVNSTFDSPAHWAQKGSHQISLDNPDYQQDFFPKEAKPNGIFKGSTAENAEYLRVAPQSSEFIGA
Sequence (P01133 971-1023 partner limits assumed): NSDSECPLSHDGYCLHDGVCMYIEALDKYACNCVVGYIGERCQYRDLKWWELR
Hi! Could you send only the number? It should be in µM, unit omitted.

Query block: Please supply the value of reported IC50 for the item CC=CC=CC(=O)Nc1ccc2ncnc(Nc3cccc(Br)c3)c2c1 [Example 11]
Result block: 0.056

Below: the item to evaluate.
Query block: Kindly indicate its recorded IC50. Item: O=C(C#Cc1ccccc1)Nc1ccc2ncnc(Nc3cccc(Br)c3)c2c1 [Example 14]
Result block: 1
